- assay comment: Volume of distribution at steady state in male Sprague-Dawley rat at 10 mg/kg, iv measured upto 24 hrs by LC-MS/MS analysis
- Assay type: ADME, organism-based
- experimental conditions: in vivo, read-out: Vdss
measured quantity: Vd

For the molecule `CCCNC(=O)O[C@@H]1/C=C(\C)C[C@H]2C=C(C[C@@H]3OC(=O)[C@H](CSC(=S)N(C)C)[C@H]31)C(=O)O2` , give its reported Vd.
57.6 L/kg

---

- assay comment: MRT (0 to t) in male Sprague-Dawley rat at 10 mg/kg, iv measured upto 24 hrs by LC-MS/MS analysis
- Format: ADME, organism-based
- experimental conditions: in vivo
measured quantity: MRT last at 24 h (h)
Field format: number, assumed h, no unit text.

For the compound `CCCNC(=O)O[C@@H]1/C=C(\C)C[C@H]2C=C(C[C@@H]3OC(=O)[C@H](CSC(=S)N(C)C)[C@H]31)C(=O)O2` , give its reported MRT last at 24 h.
4.15

---

- assay comment: Tmax in male Sprague-Dawley rat at 10 mg/kg, iv measured upto 24 hrs by LC-MS/MS analysis
- Assay type: ADME, organism-based
- experimental conditions: in vivo
measured quantity: Tmax (min)
Field format: number, assumed min, no unit text.

For the molecule `CCCNC(=O)O[C@@H]1/C=C(\C)C[C@H]2C=C(C[C@@H]3OC(=O)[C@H](CSC(=S)N(C)C)[C@H]31)C(=O)O2` , give its reported Tmax.
1.98

---

- assay comment: AUC (0 to t) in male Sprague-Dawley rat at 10 mg/kg, iv measured upto 24 hrs by LC-MS/MS analysis
- Type: ADME, organism-based
- experimental conditions: in vivo
measured quantity: AUC(0-t) at 24 h (ng·h/mL)
Field format: number, assumed ng·h/mL, no unit text.

For the compound `CCCNC(=O)O[C@@H]1/C=C(\C)C[C@H]2C=C(C[C@@H]3OC(=O)[C@H](CSC(=S)N(C)C)[C@H]31)C(=O)O2` , give its reported AUC(0-t) at 24 h.
997
